assay: Cmax in Sprague-Dawley rat at 10 mg/kg, po measured up to 24 hrs by LC-MS/MS analysis; assay type: ADME, organism-based; parameters: route oral, dose 10 mg/kg, time <=24; details: in vivo
# if measured Cmax < 20000 ng/mL: met  # else: not met

1. CC(C)[C@H](C[C@@H]1OC(=O)NC1=O)c1ccc(-c2ccc3cccc(F)c3c2)[nH]c1=O (relative stereo) = not met
2. CCn1ncc2c(F)cc(-c3ccc(C(/C=C4\OC(=O)NC4=O)(CC)CC)c(=O)[nH]3)cc21 = met
3. CCC(/C=C1\OC(=O)NC1=O)(CC)c1ccc(-c2ccc3cccc(F)c3c2)[nH]c1=O = not met
4. CC(C)C(/C=C1\OC(=O)NC1=O)c1ccc(-c2ccc3cccc(F)c3c2)[nH]c1=O (stereo not given) = not met
5. C/C(=C1/OC(=O)NC1=O)C(c1ccc(-c2ccc3cccc(F)c3c2)[nH]c1=O)C(C)C (stereo not given) = met

---

experiment: Plasma protein binding in human; type: ADME, cell-free; settings: read-out: PPB (converted)
OBSERVABLE: fraction unbound

1) CCn1ncc2c(F)cc(-c3ccc(C(/C=C4\OC(=O)NC4=O)(CC)CC)c(=O)[nH]3)cc21 = 0.0011
2) CC(C)C(/C=C1\OC(=O)NC1=O)c1ccc(-c2ccc3cccc(F)c3c2)[nH]c1=O (stereo not drawn) = 0.0008
3) CC(C)[C@H](C[C@@H]1OC(=O)NC1=O)c1ccc(-c2ccc3cccc(F)c3c2)[nH]c1=O (relative stereo) = 0.0032

---

assay: Plasma protein binding in rat; format: ADME, cell-free; conditions: read-out: PPB (converted)
Reported fraction unbound values for the following compounds.
OBSERVABLE: fraction unbound

1) CC(C)[C@H](C[C@@H]1OC(=O)NC1=O)c1ccc(-c2ccc3cccc(F)c3c2)[nH]c1=O (relative stereo) = 0.0021
2) CCn1ncc2c(F)cc(-c3ccc(C(/C=C4\OC(=O)NC4=O)(CC)CC)c(=O)[nH]3)cc21 = 0.0018
3) CC(C)C(/C=C1\OC(=O)NC1=O)c1ccc(-c2ccc3cccc(F)c3c2)[nH]c1=O (stereo not drawn) = 0.0001

---

assay: Metabolic stability in rat liver microsomes assessed as intrinsic clearance half life; format: ADME, Microsome
OBSERVABLE: half-life (h)

1. CC(C)C(CC1NC(=O)NC1=O)c1ccc(-c2ccc3cccc(F)c3c2)[nH]c1=O (stereo unspecified) = 0.35
2. CC(C)C(/C=C1\NC(=O)NC1=O)c1ccc(-c2ccc3cccc(F)c3c2)[nH]c1=O (stereo unspecified) = 1.46
3. O=C1NC(=O)/C(=C/C(c2ccc(-c3ccc4cccc(F)c4c3)[nH]c2=O)C2CCCCC2)O1 (stereo unspecified) = 2.39

---

experiment: Metabolic stability in human liver microsomes assessed as intrinsic clearance half life; format: ADME, Microsome
OBSERVABLE: half-life

1. CC(C)/C(=C1/OC(=O)NC1=O)c1ccc(-c2ccc3cccc(F)c3c2)[nH]c1=O = > 3 h
2. CC(C)/C(=C1\NC(=O)OC1=O)c1ccc(-c2ccc3cccc(F)c3c2)[nH]c1=O = > 3 h
3. CC(C)C(/C=C1\SC(=O)NC1=O)c1ccc(-c2ccc3cccc(F)c3c2)[nH]c1=O (stereo not given) = > 3 h
4. CC(C)/C(=C1/SC(=O)NC1=O)c1ccc(-c2ccc3cccc(F)c3c2)[nH]c1=O = > 3 h
5. CCC(/C=C1\OC(=O)NC1=O)(CC)c1ccc(-c2ccc3cc(F)cc(F)c3c2)[nH]c1=O = > 3 h
6. CC(C)C(/C=C1\OC(=O)NC1=O)c1ccc(-c2ccc3cccc(F)c3c2)[nH]c1=O (stereo not given) = > 3 h
7. CC(C)[C@H](/C=C1\OC(=O)NC1=O)c1ccc(-c2ccc3cccc(F)c3c2)[nH]c1=O = > 3 h
8. CCC(CC)C(/C=C1\OC(=O)NC1=O)c1ccc(-c2ccc3cccc(F)c3c2)[nH]c1=O (stereo not given) = > 3 h
9. O=C1NC(=O)/C(=C/C2(c3ccc(-c4ccc5cccc(F)c5c4)[nH]c3=O)CCCC2)O1 = > 3 h
10. CC(C)C(/C=C1\OC(=O)NC1=O)c1cc(Cl)c(-c2ccc3cccc(F)c3c2)[nH]c1=O (stereo not given) = > 3 h
